Tested on: IGROV1 ovarian
assay method text: NCI-60 one-dose screen, 48 h
run parameters: 10 µM unless noted
The panel holds about 83,000 compounds, 20% with a hit somewhere; the sample as a whole holds those more often. Calls of active or inactive are those of the source. How the source made its calls: active means growth percent below 10; inactive means the rest.
Outcomes: y (active), n (inactive)

chem smiles: COc1ccc(CC(=O)Nc2nn3c(-c4cc(C(F)(F)F)cc(C(F)(F)F)c4)nnc3s2)cc1
assigned class: n

chem smiles: COc1cnc2c(c1)C(=O)c1c-2n(CCCNC(C)C)c(=O)c2cc(F)ccc12
assigned class: y

chem smiles: COc1cc(/C=C\C(C)=N\Nc2ccccc2)ccc1O
assigned class: n

chem smiles: NS(=O)(=O)c1ccc(-n2ncc3c(SCc4ccccc4)ncnc32)cc1
assigned class: n

====

System: MDA-MB-435 melanoma
assay method text: NCI-60 one-dose screen, 48 h
run parameters: 10 µM unless noted
The panel holds about 83,000 compounds, 20% with a hit somewhere; the sample as a whole holds those more often. Calls of active or inactive are those of the source. The calls were made as follows: active = growth percent below 10; inactive = the rest.
Labels: label 1 (active), label 0 (inactive)

compound: O=C(O)c1ccc(CNS(=O)(=O)c2ccc3ccccc3c2)cc1
assigned class: label 0
--
compound: CN[C@@H]1C(OC2[C@H](O[C@H]3[C@H](O)[C@@H](O)[C@H](N=C(N)N)[C@@H](O)[C@@H]3N=C(N)N)OC(C)[C@]2(O)CO)OC(CO)C(O)C1O (stereo not given in full)
assigned class: label 0
--
compound: FCc1ncc(-c2ccc(C(F)(F)F)cc2)c(NC2CCCCCC2)n1
assigned class: label 1
--
compound: NS(=O)(=O)c1ccc(N2CC(c3nc4ccccc4[nH]3)CC2=O)cc1 (stereo not given)
assigned class: label 0
--
compound: CCCCCc1c(C)[nH]c(/C=C2\N=C(c3ccc[nH]3)C=C2OCc2ccccc2)c1C
assigned class: label 1
--
compound: COc1cc(C(=O)c2cc3c(cc2C)OCO3)cc(OC)c1OC
assigned class: label 1
--
compound: Clc1ccc2c(c1)C(Br)c1cc(Cl)cc(Cl)c1-2 (stereo not given)
assigned class: label 0
--
compound: CCOC(=O)c1sc(NC(=O)COc2cccc(/C=C3\CCc4cc(OC)ccc4C3=O)c2)nc1C
assigned class: label 1
--
compound: O=C1/C(=C/c2ccccc2O)C(=S)SN1Cc1ccco1
assigned class: label 0
--
compound: C/C(=C\CCc1ccoc1)CC/C=C(\C)CCCC1COC(=O)C1 (stereo not given)
assigned class: label 0

====

Tested on: OVCAR-5 ovarian
assay method text: NCI-60 one-dose screen, 48 h
run parameters: 10 µM unless noted
Compounds without any hit were thinned out: in the full panel of roughly 83,000, 20% have a hit. Calls of active or inactive are those of the source. Rule for the calls: active = growth percent below 10; inactive = the rest.
Outcomes: y = active, n = inactive

compound: CSc1nc(Nc2ccc(S(=O)(=O)Nc3ccon3)cc2)c(C#N)c(-c2ccc(Cl)cc2)n1
assigned class: n
--
compound: CC(=O)Nc1c(Cl)cc2c(c1Cl)Cc1ccccc1-2
assigned class: n
--
compound: NS(=O)(=O)c1ccc(-n2nc(-c3ccc(Br)cc3)ccc2=O)cc1
assigned class: n
--
compound: O=C1/C(=C/c2ccc(F)cc2)Cc2ccccc21
assigned class: n
--
compound: N#CSCC1CC(O)(c2ccccc2)C(c2ccccc2)C(c2ccc(Cl)cc2)O1 (stereo unspecified)
assigned class: y
--
compound: COc1cc(NC(=O)NCc2ccco2)ccc1-c1ccc(NC(=O)NCc2ccco2)cc1OC
assigned class: n
